Reported values of pIC50 for individual entries
molecular target: T1, monomeric human CSF1R ectodomain protein (human, UniProt P07333 20-517); experiment: AlphaScreen competition with mu0301 IgG4(S228P) for biotinylated monomeric human CSF1R
T1 construct: also called biotinylated monomeric human CSF1R
pIC50: −log10 of the molar value.
observationType: pIC50

binder	observationType	reportedValue
MH4 (antibody, V domains shown, Designer clone, human IgG4(S228P)/Ckappa IgG) VH: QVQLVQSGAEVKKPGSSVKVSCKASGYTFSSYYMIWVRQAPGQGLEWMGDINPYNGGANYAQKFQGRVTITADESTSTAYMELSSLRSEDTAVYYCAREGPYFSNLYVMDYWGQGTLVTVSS VL: EIVLTQSPATLSLSPGERATLSCRASQSVSYQGENYLAWYQQKPGQAPRLLIYDASNRATGIPARFSGSGSGTDFTLTISSLEPEDFAVYYCQLSNQDLLTFGGGTKVEIK	pIC50	7.72
30D02 (antibody, human IgG4, V domains shown, Library-derived clone, tested as human IgG4(S228P)/Ckappa IgG; framework residue limits counted on the grafts) VH: QVQLVQSGAEVKKPGSSVKVSCKASGYTFSSYYMIWVRQAPGQGLEWMGDINPYNGGTTYAQKFQGRVTITADESTSTAYMELSSLRSEDTAVYYCAREGPYFSNLYVMDYWGQGTLVTVSS VL: EIVLTQSPATLSLSPGERATLSCRASQSVEYQGENYLNWYQQKPGQAPRLLIYAASNRATGIPARFSGSGSGTDFTLTISSLEPEDFAVYYCQLSNQDLLTFGGGTKVEIK	pIC50	8.41
29H09 (antibody, human IgG4, V domains shown, Library-derived clone, tested as human IgG4(S228P)/Ckappa IgG; framework residue limits counted on the grafts) VH: QVQLVQSGAEVKKPGSSVKVSCKASGYTFTSYYMIWVRQAPGQGLEWMGDINPYNGGANYAQKFQGRVTITADESTSTAYMELSSLRSEDTAVYYCAREGPYFSNLYVMDYWGQGTLVTVSS VL: EIVLTQSPATLSLSPGERATLSCRASQSVSYEGENYLNWYQQKPGQAPRLLIYAASNRATGIPARFSGSGSGTDFTLTISSLEPEDFAVYYCQLSNEDLLTFGGGTKVEIK	pIC50	8.67
29D10 (antibody, human IgG4, V domains shown, Library-derived clone, tested as human IgG4(S228P)/Ckappa IgG; framework residue limits counted on the grafts) VH: QVQLVQSGAEVKKPGSSVKVSCKASGYTFTSYYMIWVRQAPGQGLEWMGDINPYNGGANFAQKFQGRVTITADESTSTAYMELSSLRSEDTAVYYCAREGPYFSNLYVMDYWGQGTLVTVSS VL: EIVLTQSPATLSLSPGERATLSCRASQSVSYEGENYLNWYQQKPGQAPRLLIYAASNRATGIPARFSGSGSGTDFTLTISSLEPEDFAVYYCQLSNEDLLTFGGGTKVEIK	pIC50	8.71

The measured values listed here are drawn from patent US20210301026A1.
